Target: human type 1 glycine transporter (GlyT1) (Homo sapiens)
Construct: T98G cells (glioma cells) expressing human type 1 glycine transporter (GlyT1) were used; endogenous in cells; host or cells: T98G cells (human glioma cells)
Sequence (P48067 1-706): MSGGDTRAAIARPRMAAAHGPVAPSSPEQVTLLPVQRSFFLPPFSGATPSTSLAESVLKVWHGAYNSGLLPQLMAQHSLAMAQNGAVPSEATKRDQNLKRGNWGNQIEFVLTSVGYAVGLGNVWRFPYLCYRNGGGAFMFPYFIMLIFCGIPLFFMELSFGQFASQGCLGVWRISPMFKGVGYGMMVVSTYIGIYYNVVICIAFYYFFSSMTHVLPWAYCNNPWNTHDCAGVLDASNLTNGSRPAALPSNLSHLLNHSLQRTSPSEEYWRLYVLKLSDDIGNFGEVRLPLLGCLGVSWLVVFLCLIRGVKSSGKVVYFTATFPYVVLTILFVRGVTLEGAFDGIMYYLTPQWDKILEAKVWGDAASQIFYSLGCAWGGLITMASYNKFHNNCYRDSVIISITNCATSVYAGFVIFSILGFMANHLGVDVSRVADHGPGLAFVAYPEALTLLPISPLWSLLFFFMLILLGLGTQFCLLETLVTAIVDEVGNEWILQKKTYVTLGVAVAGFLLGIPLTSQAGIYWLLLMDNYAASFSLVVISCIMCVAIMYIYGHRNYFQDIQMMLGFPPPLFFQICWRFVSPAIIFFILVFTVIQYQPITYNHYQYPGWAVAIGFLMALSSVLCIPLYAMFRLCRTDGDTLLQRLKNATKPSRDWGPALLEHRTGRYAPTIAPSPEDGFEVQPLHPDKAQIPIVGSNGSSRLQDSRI
Test: Glycine uptake inhibition experiment ([3H] glycine uptake in T98G cells expressing GlyT1)
Format: cell-based
Conditions: glycine uptake inhibition
Description: Glycine Uptake Inhibition Experiment A glycine uptake experiment was conducted in accordance with the method published in Neuron, 8, 927-935, 1992. In the experiment, T98G cells (glioma cells) expressing human type 1 glycine transporter (GlyT1) were used. The T98G cells were seeded in a 96-well plate at 2.0×10^4 cells/well and cultured overnight in a CO2 incubator. […] The glycine content in the cells was determined by measuring the radioactivity in the cell lysate with a liquid scintillation counter. […]

Compound	IC50
O=C1N(Cc2cncc(Cl)c2)c2ccc(F)c(C(O)C(F)F)c2C1(F)F (single isomer, unassigned) [Compound 135]	57 nM
C[C@H](O)c1cccc2c1C(F)(F)C(=O)N2Cc1ccnc(C(F)(F)F)c1	24 nM
CCC(O)c1cccc2c1C(F)(F)C(=O)N2Cc1cccc(Cl)n1 (centres unmarked)	180 nM
O=C1N(Cc2cc3ccccc3c(=O)[nH]2)c2cccc([C@@H](O)C(F)(F)F)c2C1(F)F	58 nM
O=C1N(Cc2cccc(F)c2)c2cccc(C(O)C(F)F)c2C1(F)F (single isomer, unassigned)	16 nM
O=C1N(Cc2cncc(-n3nccn3)c2)c2cccc([C@@H](O)C(F)(F)F)c2C1(F)F	66 nM
O=C1N(Cc2cncc(Cl)n2)c2cccc([C@@H](O)C(F)(F)F)c2C1(F)F	40 nM
CC(O)c1cccc2c1C(F)(F)C(=O)N2Cc1cncc(Cl)c1 (single isomer, unassigned) [Compound 7]	14 nM

----------
Molecular target: human type 1 glycine transporter (GlyT1) (Homo sapiens)
Construct: T98G cells (glioma cells) expressing human type 1 glycine transporter (GlyT1) were used; endogenous in cells; host or cells: T98G cells (human glioma cells)
Sequence (P48067 1-706): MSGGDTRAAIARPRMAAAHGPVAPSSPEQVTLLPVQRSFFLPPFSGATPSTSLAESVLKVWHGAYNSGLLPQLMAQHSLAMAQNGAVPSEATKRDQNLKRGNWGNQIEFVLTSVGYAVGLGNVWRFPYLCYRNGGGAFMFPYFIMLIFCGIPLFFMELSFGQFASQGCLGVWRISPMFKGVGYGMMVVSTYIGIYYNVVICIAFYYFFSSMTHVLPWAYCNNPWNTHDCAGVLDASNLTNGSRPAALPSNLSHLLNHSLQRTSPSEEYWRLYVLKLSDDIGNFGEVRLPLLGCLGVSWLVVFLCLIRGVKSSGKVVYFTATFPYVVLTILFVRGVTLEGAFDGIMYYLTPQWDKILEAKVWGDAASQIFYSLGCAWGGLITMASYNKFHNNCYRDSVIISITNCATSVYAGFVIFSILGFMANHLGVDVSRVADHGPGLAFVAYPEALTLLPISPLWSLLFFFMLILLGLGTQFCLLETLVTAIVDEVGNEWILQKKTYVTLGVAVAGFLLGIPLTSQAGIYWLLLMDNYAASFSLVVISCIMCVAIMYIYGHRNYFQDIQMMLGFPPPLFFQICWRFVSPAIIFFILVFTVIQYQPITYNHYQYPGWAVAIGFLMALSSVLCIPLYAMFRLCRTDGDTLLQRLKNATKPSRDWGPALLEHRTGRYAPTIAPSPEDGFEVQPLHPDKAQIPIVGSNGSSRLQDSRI
Experiment: Glycine uptake inhibition experiment ([3H] glycine uptake in T98G cells expressing GlyT1)
Type: cell-based
Details: glycine uptake inhibition
pIC50: −log10 of the molar value.
Reported property: pIC50

Compound	Target	Reported property	Quantitative readout
C[C@H](O)c1cccc2c1C(F)(F)C(=O)N2Cc1cc(F)ccn1	human type 1 glycine transporter (GlyT1) (Homo sapiens)	pIC50	7.04
C[C@H](O)c1cccc2c1C(F)(F)C(=O)N2Cc1cncc(C#N)c1	human type 1 glycine transporter (GlyT1) (Homo sapiens)	pIC50	7.04
O=C1N(Cc2cccc(Cl)n2)c2cccc(C(O)C(F)(F)F)c2C1(F)F (single isomer, unassigned) [Compound 9]	human type 1 glycine transporter (GlyT1) (Homo sapiens)	pIC50	7.77
O=C1N(Cc2cncc(F)c2)c2cccc(C(O)C(F)F)c2C1(F)F (single isomer, unassigned)	human type 1 glycine transporter (GlyT1) (Homo sapiens)	pIC50	6.62
CC(O)c1cccc2c1C(F)(F)C(=O)N2Cc1cncc(Cl)c1 (stereo not shown) [Compound 3]	human type 1 glycine transporter (GlyT1) (Homo sapiens)	pIC50	7.49
CC(O)c1cccc2c1C(F)(F)C(=O)N2Cc1ccnc(Cl)c1 (single isomer, unassigned) [Compound 34]	human type 1 glycine transporter (GlyT1) (Homo sapiens)	pIC50	5.34
CC(c1cccc(Cl)n1)N1C(=O)C(F)(F)c2c([C@H](C)O)cccc21 (stereo partly shown) [Compound 51]	human type 1 glycine transporter (GlyT1) (Homo sapiens)	pIC50	6.59
C[C@H](O)c1cccc2c1C(F)(F)C(=O)N2Cc1cc(C(F)(F)F)ccn1	human type 1 glycine transporter (GlyT1) (Homo sapiens)	pIC50	7.29
CC(O)c1cccc2c1C(F)(F)C(=O)N2Cc1ccnc(Cl)c1 (single isomer, unassigned) [Compound 33]	human type 1 glycine transporter (GlyT1) (Homo sapiens)	pIC50	7.74
C[C@H](O)c1cccc2c1C(F)(F)C(=O)N2Cc1ccc2nccnc2c1	human type 1 glycine transporter (GlyT1) (Homo sapiens)	pIC50	6.85
O=C1N(Cc2cccc(Cl)n2)c2cccc(C3(O)COC3)c2C1(F)F	human type 1 glycine transporter (GlyT1) (Homo sapiens)	pIC50	5.12
Cn1c(CN2C(=O)C(F)(F)c3c([C@@H](O)C(F)(F)F)cccc32)nc2ccccc2c1=O	human type 1 glycine transporter (GlyT1) (Homo sapiens)	pIC50	7.37
C[C@H](O)c1cccc2c1C(F)(F)C(=O)N2Cc1ccnc(-n2nccn2)c1	human type 1 glycine transporter (GlyT1) (Homo sapiens)	pIC50	6.96
C[C@H](O)c1cccc2c1C(F)(F)C(=O)N2Cc1nc2ccccc2o1	human type 1 glycine transporter (GlyT1) (Homo sapiens)	pIC50	7.52
C[C@H](O)c1cccc2c1C(F)(F)C(=O)N2Cc1ccnc(F)c1	human type 1 glycine transporter (GlyT1) (Homo sapiens)	pIC50	7.30
O=C1N(Cc2cccc(Cl)n2)c2cccc(C(O)C(F)(F)F)c2C1(F)F (single isomer, unassigned) [Compound 8]	human type 1 glycine transporter (GlyT1) (Homo sapiens)	pIC50	6.10

----------
molecular target: human type 1 glycine transporter (GlyT1) (Homo sapiens, UniProt P48067); construct: T98G cells (glioma cells) expressing human type 1 glycine transporter (GlyT1) were used; endogenous in cells; host or cells: T98G cells (human glioma cells); assay: Glycine uptake inhibition experiment ([3H] glycine uptake in T98G cells expressing GlyT1); assay type: cell-based
pIC50: −log10 of the molar value.
pIC50 reference

Compound	pIC50
C[C@H](O)c1cccc2c1C(F)(F)C(=O)N2Cc1cc(OC(F)F)ccn1 [Compound 245]	6.96
C[C@H](O)c1cccc2c1C(F)(F)C(=O)N2Cc1cc(C#N)ncc1F [Compound 188]	7.21
C[C@H](O)c1cccc2c1C(F)(F)C(=O)N2Cc1ncc(F)cc1C#N [Compound 233]	6.74
O=C1N(Cc2cncc(Cl)n2)c2cccc(C(O)C(F)F)c2C1(F)F (single isomer, unassigned) [Compound 172]	7.62
C[C@H](O)c1cccc2c1C(F)(F)C(=O)N2Cc1cnc(F)c(Br)c1 [Compound 228]	8.68
CCOc1ccc(CN2C(=O)C(F)(F)c3c([C@H](C)O)cccc32)cn1 [Compound 241]	7.18
C[C@H](O)c1cccc2c1C(F)(F)C(=O)N2Cc1ccnc(OC(F)F)c1 [Compound 194]	7.37
C[C@H](O)c1cccc2c1C(F)(F)C(=O)N2Cc1cnc(F)c(C#N)c1 [Compound 235]	7.64
COc1cccnc1CN1C(=O)C(F)(F)c2c([C@H](C)O)cccc21 [Compound 247]	6.24
Cn1c(CN2C(=O)C(F)(F)c3c(C(O)C(F)F)cccc32)nc2cc(F)ccc2c1=O (single isomer, unassigned) [Compound 178]	7.36
N#Cc1cc(CN2C(=O)C(F)(F)c3c(C(O)C(F)F)cccc32)c(F)cn1 (single isomer, unassigned) [Compound 219]	6.74
O=C1N(Cc2ccnc(OC(F)F)c2)c2cccc(C(O)C(F)F)c2C1(F)F (single isomer, unassigned) [Compound 218]	8.00
C[C@H](O)c1cccc2c1C(F)(F)C(=O)N2Cc1ccc(Cl)nc1C#N [Compound 248]	5.92
COc1ccc(CN2C(=O)C(F)(F)c3c(C(O)C(F)F)cccc32)cn1 (single isomer, unassigned) [Compound 255]	7.16
COc1ccc(CN2C(=O)C(F)(F)c3c([C@H](C)O)cccc32)cn1 [Compound 203]	7.51
O=C1N(Cc2cncc(C(F)(F)F)c2)c2cccc(C(O)C(F)F)c2C1(F)F (single isomer, unassigned) [Compound 186]	7.19
